The measurements presented in this section are drawn from patent US11713335B2.

The following compounds are listed with their measured MIC values.
Tested on: S. aureus MW2
Assay: Minimal inhibitory concentration, S. aureus MW2
Type: cell-based
Details: 16 hour minimal inhibitory concentration at 37° C.; read-out: MIC (μM) S. aureus MW2 (MRSA)
Description: General Procedure for Determination of Minimal Inhibitory Concentrations Overnight cultures (5 mL) of bacterial strains were grown in LB media or TSA media (for S. aureus) at 37° C. and with shaking at 220 rpm until saturation. The overnight culture was diluted serially 1:100 (50 μL in 5 mL sterile media) and then 1:100 (250 μL in 25 mL sterile media). […] The plate was incubated without shaking in a 37° C. for 16 hours and then read by visible light spectrophotometer (Molecular Devices) at 600 nm. […]

- compound: "CO[C@@H]1[C@@H](OC(N)=O)[C@@H](O)[C@H](Oc2ccc3c(O)c(NC(=O)c4ccc(O)c(CC(N)=O)c4)c(=O)oc3c2C)OC1(C)C [Compound 90]"
  modifier: ">"
  MIC / µM: 100
- compound: "CO[C@@H]1[C@@H](OC(N)=O)[C@@H](O)[C@H](Oc2ccc3c(O)c(NC(=O)c4cccc(-c5ccccc5C(C)C)c4)c(=O)oc3c2C)OC1(C)C [Compound 49]"
  modifier: "="
  MIC / µM: 5
- compound: "CO[C@@H]1[C@@H](OC(N)=O)[C@@H](O)[C@H](Oc2ccc3c(O)c(NC(=O)c4cccc(-c5ccc([N+](=O)[O-])cc5)c4)c(=O)oc3c2C)OC1(C)C [Compound 24]"
  modifier: "="
  MIC / µM: 5
- compound: "CO[C@@H]1[C@@H](OC(N)=O)[C@@H](O)[C@H](Oc2ccc3c(O)c(NC(=O)c4cccc(-c5cccc(OC(F)(F)F)c5)c4)c(=O)oc3c2C)OC1(C)C [Compound 58]"
  modifier: "="
  MIC / µM: 0.18
- compound: "CCNC(=O)O[C@H]1[C@H](Oc2ccc3c(O)c(NC(=O)c4ccc(O)c(CC=C(C)C)c4)c(=O)oc3c2C)OC(C)(C)[C@H](OC)[C@H]1O [Compound 104]"
  modifier: "="
  MIC / µM: 2
- compound: "COc1cccc(-c2cccc(C(=O)Nc3c(O)c4ccc(O[C@@H]5OC(C)(C)[C@H](OC)[C@@H](OC(N)=O)[C@H]5O)c(C)c4oc3=O)c2)c1 [Compound 45]"
  modifier: "="
  MIC / µM: 3
- compound: "CO[C@@H]1[C@@H](OC(N)=O)[C@@H](O)[C@H](Oc2ccc3c(O)c(NC(=O)c4cccc(-c5ccccc5C(F)(F)F)c4)c(=O)oc3c2C)OC1(C)C [Compound 60]"
  modifier: "="
  MIC / µM: 5
- compound: "CO[C@@H]1[C@@H](OC(N)=O)[C@@H](O)[C@H](Oc2ccc3c(O)c(NC(=O)Cc4ccccc4)c(=O)oc3c2C)OC1(C)C [Compound 42]"
  modifier: ">"
  MIC / µM: 100
- compound: "CO[C@@H]1[C@@H](OC(N)=O)[C@@H](O)[C@H](Oc2ccc3c(O)c(NC(C)=O)c(=O)oc3c2C)OC1(C)C [Compound 102]"
  modifier: ">"
  MIC / µM: 100
- compound: "CO[C@@H]1[C@@H](O)[C@@H](OC(=O)NC2CCCCC2)[C@H](Oc2ccc3c(O)c(NC(=O)c4ccc(O)c(CC=C(C)C)c4)c(=O)oc3c2C)OC1(C)C [Compound 110]"
  modifier: ">"
  MIC / µM: 100
- compound: "CO[C@@H]1[C@@H](OC(N)=O)[C@@H](O)[C@H](Oc2ccc3c(O)c(NC(=O)c4cc(-c5ccc6ccccc6c5)cc(O)c4O)c(=O)oc3c2C)OC1(C)C [Compound 98]"
  modifier: "="
  MIC / µM: 18
